- target-or-test-system: H723R-pendrin (Homo sapiens, UniProt O43511, H723R)
- Construct: expressed in transfected cells; host or cells: PANC-1
- Sequence (O43511 whole entry H723R): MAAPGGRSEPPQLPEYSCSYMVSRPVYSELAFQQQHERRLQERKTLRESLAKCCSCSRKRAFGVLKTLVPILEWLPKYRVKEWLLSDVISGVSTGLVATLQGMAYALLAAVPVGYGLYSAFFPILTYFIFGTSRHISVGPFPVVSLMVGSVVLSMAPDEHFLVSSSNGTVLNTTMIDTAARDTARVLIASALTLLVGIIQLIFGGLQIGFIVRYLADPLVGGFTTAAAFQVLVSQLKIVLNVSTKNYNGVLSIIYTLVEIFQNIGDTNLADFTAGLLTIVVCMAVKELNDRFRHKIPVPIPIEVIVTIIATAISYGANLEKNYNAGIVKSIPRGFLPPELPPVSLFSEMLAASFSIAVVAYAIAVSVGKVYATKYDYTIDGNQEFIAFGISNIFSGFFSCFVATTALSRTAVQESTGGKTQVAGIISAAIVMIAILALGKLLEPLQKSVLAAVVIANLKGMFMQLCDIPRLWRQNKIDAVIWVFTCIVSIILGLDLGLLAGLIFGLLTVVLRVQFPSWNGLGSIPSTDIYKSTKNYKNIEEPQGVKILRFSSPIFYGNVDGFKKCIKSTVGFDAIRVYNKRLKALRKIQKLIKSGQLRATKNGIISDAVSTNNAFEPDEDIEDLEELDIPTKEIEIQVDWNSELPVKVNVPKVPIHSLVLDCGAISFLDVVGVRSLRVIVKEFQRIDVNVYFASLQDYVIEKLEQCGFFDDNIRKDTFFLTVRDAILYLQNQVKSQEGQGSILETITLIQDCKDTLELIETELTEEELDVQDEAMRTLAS
- method-summary: YFP fluorescence quenching assay (Cl−/I− exchange activity of pendrin)
- Format: cell-based
- measurement-conditions: PANC-1 cells stably expressing human H723R-pendrin and YFP-F46L/H148Q/I152L; compound incubation 20-24 hours; iodide influx
pEC50: −log10 of the molar value.
experimental-endpoint: pEC50

Query block: Which measured pEC50 value corresponds to COc1ccc(-c2cccc(C3=C(N)N(CC4CCNC4)CC3=O)n2)cc1OC (stereo not shown) [Compound 85] ?
Result block: < 5.00

Query block: Which measured pEC50 value corresponds to NC1=C(c2cncc(-c3ccc(O)c(O)c3)n2)C(=O)CN1CC1CC(F)(F)C1 [Compound 104] ?
Result block: 5.00 to 5.30

Query block: Which measured pEC50 value corresponds to COc1cc(-c2cncc(C3=C(N)N(CC4CCCC4)CC3=O)c2)ccc1O [Compound 71] ?
Result block: < 5.00

Query block: Which measured pEC50 value corresponds to NC1=C(c2ccc(-c3ccc(O)c(O)c3)nc2)C(=O)CN1c1ccccc1Cl [Compound 59] ?
Result block: < 5.00
